A collection of molecules and their measured EC50
Target: SIRT1 (Homo sapiens)
Sequence (Q96EB6 whole entry): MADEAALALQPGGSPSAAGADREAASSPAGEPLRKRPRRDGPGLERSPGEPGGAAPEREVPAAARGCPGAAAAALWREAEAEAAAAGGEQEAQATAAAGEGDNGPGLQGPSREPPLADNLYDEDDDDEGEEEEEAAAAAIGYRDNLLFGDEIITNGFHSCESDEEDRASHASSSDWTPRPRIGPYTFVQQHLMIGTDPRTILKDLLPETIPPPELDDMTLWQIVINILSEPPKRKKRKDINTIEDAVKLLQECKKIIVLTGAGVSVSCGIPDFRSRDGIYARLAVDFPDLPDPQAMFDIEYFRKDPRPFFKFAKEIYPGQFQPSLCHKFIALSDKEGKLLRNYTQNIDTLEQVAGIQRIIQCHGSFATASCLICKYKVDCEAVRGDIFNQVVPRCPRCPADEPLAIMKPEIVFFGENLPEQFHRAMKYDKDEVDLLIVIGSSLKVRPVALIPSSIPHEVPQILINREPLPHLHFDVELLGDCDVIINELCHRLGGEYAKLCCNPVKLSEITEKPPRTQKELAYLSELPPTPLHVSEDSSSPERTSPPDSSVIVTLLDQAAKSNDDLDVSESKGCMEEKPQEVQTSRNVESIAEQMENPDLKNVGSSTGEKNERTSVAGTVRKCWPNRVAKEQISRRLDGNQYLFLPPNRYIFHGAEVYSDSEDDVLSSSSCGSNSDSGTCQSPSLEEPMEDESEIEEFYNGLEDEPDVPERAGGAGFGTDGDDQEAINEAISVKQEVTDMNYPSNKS
Assay: SIRT1 mass spectrometry (MS) based deacetylation assay
Assay type: biochemical
Details: SIRT1 activation, mass spectrometry assay; read-out: ED50 MS ASSAY
readout.kind: EC50

>>> print(df.to_string())
                                    molecule  readout_kind        result
 0  COc1cc(C(=O)Nc2ccccc2-c2cn3c(CN4CCNCC4)csc3n2)cc(OC)c1OC [Compound 208]          EC50    5 to 50 µM
 1  O=C(Nc1cccc(-c2nc3ccncc3s2)c1)c1ccccc1Oc1ccccc1 [Compound 245]          EC50        < 5 µM
 2  COc1cc(C(=O)Nc2cccc(-c3nc4ccncc4o3)c2)cc(OC)c1OC [Compound 430]          EC50    5 to 50 µM
 3  CN(C)c1ccc(C(=O)Nc2ccccc2-c2nc3cnccc3o2)cc1 [Compound 407]          EC50        < 5 µM
 4  CN(C)c1ccc(C(=O)Nc2cccc(-c3nc4cnccc4o3)c2)cc1 [Compound 299]          EC50    5 to 50 µM
 5  CN(C)c1cccc(C(=O)Nc2cccc(-c3nc4cccnc4o3)c2)c1 [Compound 111]          EC50    5 to 50 µM
 6  CN(C(=O)Nc1ccccc1-c1nc2ccccc2[nH]1)c1ccccc1 [Compound 169]          EC50        < 5 µM
 7  COc1ccc(C(=O)Nc2cccc(-c3cccnc3)c2)c(OC)c1 [Compound 331]          EC50    5 to 50 µM
 8  COc1ccc(C(=O)Nc2cccc(-c3nc4ccncc4s3)c2)cc1OC [Compound 114]          EC50        < 5 µM
 9  CN(C)c1cccc(C(=O)Nc2ccccc2-c2nc3cnccc3s2)c1 [Compound 321]          EC50        < 5 µM
10  CN(C)c1cccc(C(=O)Nc2cccc(-c3nc4ncccc4[nH]3)c2)c1 [Compound 183]          EC50    5 to 50 µM
11  COc1ccc(C(=O)Nc2ccccc2-c2cn3c(CN4CCNCC4)csc3n2)c(OC)c1 [Compound 326]          EC50    5 to 50 µM
12  COc1cc(C(=O)Nc2sccc2-c2nc3ccccc3s2)cc(OC)c1OC [Compound 144]          EC50      > 150 µM
13  COc1cc(C(=O)Nc2ccccc2-c2nc3cc(CN(C)C)cnc3s2)cc(OC)c1OC [Compound 689]          EC50    5 to 50 µM
14  O=C(Nc1ccccc1-c1cn2c(C(=O)O)csc2n1)c1cnc2ccccc2n1 [Compound 719]          EC50    5 to 50 µM
15  CN(C)c1cccc(C(=O)Nc2ccccc2-c2nc3ccncc3o2)c1 [Compound 458]          EC50        < 5 µM
16  COc1cc(C(=O)Nc2ccccc2-c2nc3cnccc3s2)cc(OC)c1OC [Compound 319]          EC50        < 5 µM
17  O=C(Nc1ccccc1-c1cn2c(CN3CCNCC3)csc2n1)c1ccc2occc2c1 [Compound 338]          EC50    5 to 50 µM
18  COc1ccc(C(=O)Nc2cccc(-c3nc4cnccc4o3)c2)cc1OC [Compound 344]          EC50        < 5 µM
19  N#Cc1cccc(C(=O)Nc2ccccc2-c2nc3cc(CN4CCOCC4)cnc3s2)c1 [Compound 685]          EC50        < 5 µM
20  O=C(Nc1ccccc1-c1cn2c(CN3CCNCC3)csc2n1)c1ccc(-c2ccccc2)cc1 [Compound 708]          EC50        < 5 µM
21  COc1cc(OC)cc(C(=O)Nc2ccccc2-c2nc3ccncc3o2)c1 [Compound 456]          EC50        < 5 µM
22  CN(C)c1cccc(C(=O)Nc2cccc(-c3nc4ccncc4s3)c2)c1 [Compound 113]          EC50    5 to 50 µM
23  NC1CCN(Cc2csc3nc(-c4ccccc4NC(=O)c4cnc5ccccc5n4)cn23)CC1 [Compound 716]          EC50        < 5 µM
24  COc1cc(C(=O)Nc2cccc(-c3nc4ncccn4c3C)c2)cc(OC)c1OC [Compound 219]          EC50    5 to 50 µM
25  CN(C)c1cccc(C(=O)Nc2cccc(-c3nc4ncccc4o3)c2)c1 [Compound 42]          EC50    5 to 50 µM
26  COc1ccc(C(=O)Nc2ccccc2-c2cc3ccccc3[nH]2)cc1OC [Compound 254]          EC50        < 5 µM
27  COc1cc(C(=O)Nc2ccc(-c3nc4ccncc4o3)cc2)cc(OC)c1OC [Compound 341]          EC50        < 5 µM
28  O=C(Nc1ccccc1-c1cn2c(CN3CCNCC3)csc2n1)c1cccnc1F [Compound 744]          EC50  51 to 100 µM
29  COc1cc(C(=O)Nc2ccccc2-c2cn3ccsc3n2)cc(OC)c1OC [Compound 204]          EC50        < 5 µM
30  O=C(Nc1ccccc1-c1nc2ccncc2s1)c1cnccn1 [Compound 391]          EC50    5 to 50 µM
31  COc1ccc(C(=O)Nc2ccccc2-c2cn3c(CN(C)C)csc3n2)cc1OC [Compound 205]          EC50    5 to 50 µM
32  COc1cc(C(=O)Nc2cc(CO)cc(-c3nc4ccncc4s3)c2)cc(OC)c1OC [Compound 135]          EC50        < 5 µM
33  Cc1ccc2oc(-c3cccc(NC(=O)c4cccc(N(C)C)c4)c3)nc2n1 [Compound 167]          EC50    5 to 50 µM
34  O=C(Nc1ccc2c(c1)OCO2)Nc1cccc(-c2nc3ncccc3o2)n1 [Compound 71]          EC50    5 to 50 µM
